Tested on: Haemaphysalis longicornis
assay: Test 2: killing of tick larvae of Haemaphysalis longicornis (immersion in emulsified aqueous solution)
Format: in vivo
details: immersed 2 to 5 minutes, 25° C. for 24 hours, read-out: Combatting Effect of Larvae of Haemaphysalis longicornis (mortality of unfed larvae)
endpoint-label: mortality at 100 ppm
State the result as a value with its unit after it.

# compound, endpoint-label, observed-value
records = [
    ("CC(C)(N=C=Nc1ccc(Cl)c(Cl)c1)c1ccccc1", "mortality at 100 ppm", "82.5%"),
    ("CCN=C=NC(C)(C)c1ccccc1", "mortality at 100 ppm", "98%"),
    ("CC(C)(N=C=NCc1ccccc1)c1ccccc1", "mortality at 100 ppm", "99.1%"),
    ("CC(N=C=NC(C)(C)c1ccccc1)c1ccccc1 (stereo not drawn)", "mortality at 100 ppm", "99.1%"),
    ("CC(C)(N=C=Nc1ccccc1)c1ccccc1", "mortality at 100 ppm", "100%"),
]

Turning to the following compound.
mortality at 100 ppm for CC1CC(N=C=NC(C)(C)c2ccccc2)CC(C)(C)C1 (stereo not drawn) ?
100%

###

assay: Test 4: acute oral toxicity in mice
Design: species or system mice (male albino, strain ddY)
details: mouse, in vivo, single dose, observed for a week
Consider the following compounds; for each one, report its LD50 at 168 h.
Give bare numbers, in mg/kg.

For every listed record, write down its LD50 at 168 h.
1. CCCCCCCCN=C=NC(C)(C)c1ccccc1
2. CCOP(=S)(OCC)Oc1nc(Cl)c(Cl)cc1Cl [Control Chemical III, reference compound]
3. CC(C)(N=C=NC1CCCCC1)c1ccccc1
4. Cc1cc(Cl)ccc1N=CN(C)C [Control Chemical I, reference compound]
5. CCCCCCN=C=NC(C)(C)c1ccccc1
6. CC1CC(N=C=NC(C)(C)c2ccccc2)CC(C)(C)C1 (centres unmarked)
7. CCCCC(CC)CN=C=NC(C)(C)c1ccccc1 (centres unmarked)

1: 6000; 2: 70; 3: 6000; 4: 160; 5: 2000; 6: 11000; 7: 7000
